Sourced from PubChem BioAssay (NCI)

A collection of molecules and their measured growth inhibition
Assay: NCI Yeast Anticancer Drug Screen. Data for the sgs1 mgt1 strain (AID 161);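 note: 0% = growth of cultures given vehicle only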
Conditions: S. cerevisiae sgs1 mgt1 strain, at 50.0 µM, stronger effect = higher value
About 79,000 compounds went through this panel and 15% of them were active in at least one assay; those are over-represented in the sample as a whole.
Numeric only. Scale: %

Sample answers from the record:
MOLECULE	UNIT TAG	growth inhibition
CC(=O)OCCSCCOC(C)=O	%	81
CCCCCCC(O)(CCCCCC)CCCCCC	%	42.8
CCC(CC)=NNc1ccc([N+](=O)[O-])cc1	%	97.8
O=[N+]([O-])c1ccccc1CC(c1c[nH]c2ccccc12)c1c[nH]c2ccccc12	%	82.9
COc1ccc(N=NC(C(=O)c2ccccc2)C(=O)c2ccccc2)cc1	%	92.4
CC(C)N1C(=O)c2ccccc2S1(Cl)c1ccccc1 (configuration not stated)	%	94.5

Enquiry: Reported growth inhibition for O=C(CBr)c1cc(-c2ccc(Cl)cc2)nc2ccccc12 : what is it?
Return: 99

Enquiry: Same again, this time with Cc1c(-c2ccccc2)ccnc1/C=N/NS(=O)(=O)c1ccccc1
Return: 82
